assay.system: hTP (Homo sapiens, UniProt P21731)
Sequence (P21731 whole entry): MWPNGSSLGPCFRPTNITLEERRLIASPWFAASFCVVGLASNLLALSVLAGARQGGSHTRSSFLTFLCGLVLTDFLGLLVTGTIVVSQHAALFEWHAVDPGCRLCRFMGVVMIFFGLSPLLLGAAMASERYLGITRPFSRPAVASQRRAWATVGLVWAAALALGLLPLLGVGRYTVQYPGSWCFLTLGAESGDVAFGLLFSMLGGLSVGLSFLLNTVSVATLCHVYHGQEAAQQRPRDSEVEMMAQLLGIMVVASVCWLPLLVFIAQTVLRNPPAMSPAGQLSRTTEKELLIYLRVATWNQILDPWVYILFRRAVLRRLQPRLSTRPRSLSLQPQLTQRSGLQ
assay.remarks: Calcium signal (FLIPR) assay, hTP (HEK)
settings: agonist potency, calcium signal; read-out: Standard agonist hTP (HEK)
measured.metric: pEC50
Give bare numbers, as −log10 of the molar value.

Return pEC50 (reported value) for this molecule: CCCCC[C@H](O)/C=C/[C@@H]1[C@@H](C/C=C\CCCC(=O)O)[C@H]2CO[C@@H]1C2 [Compound U-46619, U-46619, reference compound] 9.52

Provenance of the data: patent US7612082B2
